Listed here: items and their measured pEC50.
molecular target: human Claudin-6 (CLDN6) (human) (UniProt P56747); experiment: FACS titration of labelled mAb on ARK2 cells (endogenous CLDN6+)
Field pEC50 (float): negative decimal logarithm of the concentration in molar.

Below: 3 binders and their reported pEC50.
AB14 (antibody, V domains shown) VH: QVQLQQSGPELVRPGVSVKISCKGSGYTFTDYAMHWVKQSHAKSLEWIGVISTYSGNTNYNQKFQDKATMTVDKSSSTAYMALARLTSDDSAIYYCARRGDYSLYAMDYWGQGTSVTVSS VL: DIVLTQSPASLAVSLGQRATISCKASQSVDYDGDNYVNWYQQKVGQPPKLLISAASNLESGIPARFSGSGSGTDFTLNIHPVEEEDAATYYCQQSNEDPFTFGSGTKLEIK :: 5.88
AB11 (antibody, V domains shown, full-length IgG (ExpiCHO)) VH: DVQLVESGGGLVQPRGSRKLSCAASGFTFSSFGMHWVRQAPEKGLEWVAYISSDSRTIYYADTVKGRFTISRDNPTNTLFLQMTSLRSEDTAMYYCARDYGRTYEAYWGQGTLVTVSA VL: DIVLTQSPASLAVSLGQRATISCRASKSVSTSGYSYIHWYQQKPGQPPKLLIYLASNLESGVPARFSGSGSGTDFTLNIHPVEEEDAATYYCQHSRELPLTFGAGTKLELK :: 6.44
AB18 (antibody, V domains shown) VH: QVQLKQSGPELEKPGASVKISCKASGYSFTGYNMNWVKQSNGKSLEWIGNIDPYYGGSTYNQKFTGKATLTVDKSSSTAYMQLKSLTSEDSAVYYCARERSGYVFSAMDYWGQGTSVTVSS VL: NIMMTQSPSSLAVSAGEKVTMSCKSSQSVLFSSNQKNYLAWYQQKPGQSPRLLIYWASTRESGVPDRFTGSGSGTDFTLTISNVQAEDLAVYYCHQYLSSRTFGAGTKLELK :: 5.87

Enquiry: Entry AB3 (antibody, V domains shown, full-length IgG (ExpiCHO)) VH: EVKLEESGGGLVQPGGSMKLSCVASGFTFSNYWMNWVRQSPEKGLEWVAQIRLKSDNYATHYAESVKGRFTISRDDSKRSVYLQMNNLRAEDTGTYYCNDGPPSGCWGQGTTLIVSS VL: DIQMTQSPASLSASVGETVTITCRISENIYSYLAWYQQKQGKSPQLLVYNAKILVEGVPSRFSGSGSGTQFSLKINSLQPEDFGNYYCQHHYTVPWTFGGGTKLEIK : reported pEC50 = ?
Return: 5.78

Enquiry: Entry AB17 (antibody, V domains shown) VH: QVQLQQSGAELAKPGASVKMSCKASGYTFTGYWMHWVKQRPGQGLEWLGYINPSTGYTESNQKFKDKATLTADKSSTTAYMQLRSLTPEDSAVYYCAREGITTVLVDYWGQGTTLTVSS VL: QIVLTQSPAIMSASLGERVTMTCTASSSVSSSYLHWYQQKPGSSPKLWIYSTSNLASGVPARFSGSGSGTSYSLTISSMEAEDAATYYCHQYHRSPPTFGAGTKLELK : reported pEC50 = ?
Return: 5.30
